Taken from patent US9663473B2.

Biological target: recombinant human ALX receptor (Homo sapiens)
Sequence (P25090 1-351): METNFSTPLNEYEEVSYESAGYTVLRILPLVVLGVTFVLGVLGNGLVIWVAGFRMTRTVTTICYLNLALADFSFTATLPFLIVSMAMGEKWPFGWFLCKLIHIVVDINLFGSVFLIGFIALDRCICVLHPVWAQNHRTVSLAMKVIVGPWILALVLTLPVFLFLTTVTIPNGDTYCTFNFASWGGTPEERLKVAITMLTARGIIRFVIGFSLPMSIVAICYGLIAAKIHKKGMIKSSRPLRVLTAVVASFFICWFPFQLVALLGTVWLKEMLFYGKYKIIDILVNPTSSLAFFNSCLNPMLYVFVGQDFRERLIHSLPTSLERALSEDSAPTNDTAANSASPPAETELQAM
Experiment: Intracellular calcium measurements (FLIPR), ALX receptor agonistic activity
Details: HEK293-hALXR-Gα16 cells, Fluo-4 calcium signal, normalized to WKYMVm 10 nM
Counter-ions that a name gives are not always drawn.
For each entry below, report its EC50 value.

INPUT: I'd like to know its EC50. The compound in question is COc1ccc(CC(NC(=O)N[C@H]2CC[C@H](O)CC2)c2nc3cc(F)ccc3[nH]2)c(F)c1F (single isomer, unassigned; ent-2) [Example 376]
OUTPUT: 67 nM

INPUT: Which EC50 is listed for COc1ccc(C[C@@H](NC(=O)N2CC3CCC2CN3)c2nc3ccccc3[nH]2)cc1 (stereo partly shown) ?
OUTPUT: 59 nM

INPUT: Value lookup for EC50; key = COc1ccc(CC(NC(=O)N[C@H]2CC[C@](C)(O)CC2)c2nc3ccccc3[nH]2)c(F)c1 (mixture of isomers)
OUTPUT: 5.1 nM

INPUT: Fill in: EC50 of `COC[C@H](NC(=O)N[C@H](Cc1ccc(OC)cc1)c1nc2ccccc2[nH]1)c1ccccc1` is ___
OUTPUT: 54 nM

INPUT: Could you tell me which EC50 is on file for COc1ccc(C[C@@H](NC(=O)NC2CC=CC2)c2nc3ccccc3[nH]2)cc1 [Example 13, hydrochloride] ?
OUTPUT: 27 nM

INPUT: Item under review: COc1ccc(C[C@@H](NC(=O)NC2CCCc3ccccc32)c2nc3ccccc3[nH]2)cc1 (stereo partly shown) . Reported EC50?
OUTPUT: 26 nM

INPUT: Sample `COc1ccc(C[C@@H](NC(=O)N[C@H](CO)c2ccccc2)c2nc3ccccc3[nH]2)cc1` — what was its EC50?
OUTPUT: 176 nM
